target: δ receptor (Mus musculus)
Construct: The isolated vas deference was filled with Krebes-Henseleit solution; from tissue; host or cells: isolated vas deferens of male ddy mouse
Sequence (P32300 whole entry): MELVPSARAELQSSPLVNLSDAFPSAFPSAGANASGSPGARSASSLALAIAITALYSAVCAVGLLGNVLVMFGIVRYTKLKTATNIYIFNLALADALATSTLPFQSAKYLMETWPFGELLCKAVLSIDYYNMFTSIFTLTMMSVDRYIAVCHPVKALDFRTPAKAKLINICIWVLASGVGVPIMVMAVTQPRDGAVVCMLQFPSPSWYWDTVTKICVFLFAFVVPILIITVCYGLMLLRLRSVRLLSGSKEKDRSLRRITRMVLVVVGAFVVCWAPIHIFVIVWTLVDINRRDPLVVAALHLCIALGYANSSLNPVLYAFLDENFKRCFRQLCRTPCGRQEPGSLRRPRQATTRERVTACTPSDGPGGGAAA
assay_comment: Ke with NTI in isolated mouse vas deference preparation
Type: cell-based, mouse (male ddy)
details: NTI (δ)
// reported Ke NTI for each item listed
Please respond with the number in nM and leave the unit unwritten.

CN(C(=O)Cc1ccc(Cl)c(Cl)c1)[C@H]1CC[C@@]2(O)[C@H]3Cc4ccc(O)c5c4[C@@]2(CCN3CC2CC2)[C@H]1O5
17.3
COc1cccc(/C=C/C(=O)N(C)[C@@H]2CC[C@@]3(O)[C@H]4Cc5ccc(O)c6c5[C@@]3(CCN4CC3CC3)[C@H]2O6)c1
96.9
CCCCCC(=O)N(C)[C@H]1CC[C@@]2(O)[C@H]3Cc4ccc(O)c5c4[C@@]2(CCN3CC2CC2)[C@H]1O5
99.3
CN(C(=O)C#Cc1ccccc1)[C@H]1CC[C@@]2(O)[C@H]3Cc4ccc(O)c5c4[C@@]2(CCN3CC2CC2)[C@H]1O5
0.309
CCCCOC(=O)N(C)[C@@H]1CC[C@@]2(O)[C@H]3Cc4ccc(O)c5c4[C@@]2(CCN3CC2CC2)[C@H]1O5
47.3

API: value(readout= Ke NTI, system= δ receptor (Mus musculus), query= "CN(C(=O)/C=C/c1cccc(C(F)(F)F)c1)[C@@H]1CC[C@@]2(O)[C@H]3Cc4ccc(O)c5c4[C@@]2(CCN3CC2CC2)[C@H]1O5" )
291

API: value(readout= Ke NTI, system= δ receptor (Mus musculus), query= "CC(=O)Oc1ccc2c3c1O[C@H]1[C@H](N(C)C(=O)/C=C/c4cccc(C(F)(F)F)c4)CC[C@@]4(O)[C@@H](C2)N(CC2CC2)CC[C@]314" )
184

API: value(readout= Ke NTI, system= δ receptor (Mus musculus), query= "CN(C(=O)/C=C/c1cccc([N+](=O)[O-])c1)[C@@H]1CC[C@@]2(O)[C@H]3Cc4ccc(O)c5c4[C@@]2(CCN3CC2CC2)[C@H]1O5" )
89

----------
// reported Ke NTI for each item listed
target: δ receptor (Mus musculus)
Construct: The isolated vas deference was filled with Krebes-Henseleit solution; from tissue; host or cells: isolated vas deferens of male ddy mouse
assay_comment: Ke with NTI in isolated mouse vas deference preparation
Type: cell-based, mouse (male ddy)
details: NTI (δ)
Please respond with the number in nM and leave the unit unwritten.

CN(C(=O)/C=C/C1CCCCC1)[C@@H]1CC[C@@]2(O)[C@H]3Cc4ccc(O)c5c4[C@@]2(CCN3CC2CC2)[C@H]1O5 [Compound 68]
143
CN(C(=O)CSc1ccccc1)[C@H]1CC[C@@]2(O)[C@H]3Cc4ccc(O)c5c4[C@@]2(CCN3CC2CC2)[C@H]1O5 [Compound 45]
135
CN(C(=O)CCc1ccccc1)[C@@H]1CC[C@@]2(O)[C@H]3Cc4ccc(O)c5c4[C@@]2(CCN3CC2CC2)[C@H]1O5 [Compound 57]
747
CN(C(=O)/C=C/c1cccc(F)c1)[C@@H]1CC[C@@]2(O)[C@H]3Cc4ccc(O)c5c4[C@@]2(CCN3CC2CC2)[C@H]1O5 [Compound 102]
276
CN(C(=O)CCc1ccccc1)[C@H]1CC[C@@]2(O)[C@H]3Cc4ccc(O)c5c4[C@@]2(CCN3CC2CC2)[C@H]1O5 [Compound 22]
545

Can you look up the measured Ke NTI of CN(C(=O)C#Cc1ccccc1)[C@@H]1CC[C@@]2(O)[C@H]3Cc4ccc(O)c5c4[C@@]2(CCN3CC2CC2)[C@H]1O5 [Compound 101] for me?
31.6

Can you look up the measured Ke NTI of CN(C(=O)OCc1ccccc1)[C@H]1CC[C@@]2(O)[C@H]3Cc4ccc(O)c5c4[C@@]2(CCN3CC2CC2)[C@H]1O5 [Compound 42] for me?
63.5

Can you look up the measured Ke NTI of CCCCOC(=O)N(C)[C@H]1CC[C@@]2(O)[C@H]3Cc4ccc(O)c5c4[C@@]2(CCN3CC2CC2)[C@H]1O5 [Compound 47] for me?
10.4

Can you look up the measured Ke NTI of CC(=O)Oc1ccc2c3c1O[C@H]1[C@H](N(C)C(=O)/C=C/c4ccccc4)CC[C@@]4(O)[C@@H](C2)N(CC2CC2)CC[C@]314 [Compound 140] for me?
261

Can you look up the measured Ke NTI of CN(C(=O)/C=C/c1ccc(C(F)(F)F)cc1)[C@@H]1CC[C@@]2(O)[C@H]3Cc4ccc(O)c5c4[C@@]2(CCN3CC2CC2)[C@H]1O5 [Compound 73] for me?
78

Can you look up the measured Ke NTI of CN(C(=O)/C=C/c1ccccc1)[C@H]1CC[C@@]2(O)[C@H]3Cc4ccc(O)c5c4[C@@]2(CCN3CC2CC2)[C@H]1O5 [Compound 24] for me?
0.426

Can you look up the measured Ke NTI of CN(C(=O)COc1ccccc1)[C@H]1CC[C@@]2(O)[C@H]3Cc4ccc(O)c5c4[C@@]2(CCN3CC2CC2)[C@H]1O5 [Compound 38] for me?
16.6

Can you look up the measured Ke NTI of CN(C(=O)/C=C/c1ccsc1)[C@H]1CC[C@@]2(O)[C@H]3Cc4ccc(O)c5c4[C@@]2(CCN3CC2CC2)[C@H]1O5 [Compound 91] for me?
450

----------
// reported Ke Naloxone for each item listed
target: μ receptor (Mus musculus, UniProt P42866)
Construct: The isolated vas deference was filled with Krebes-Henseleit solution; from tissue; host or cells: isolated vas deferens of male ddy mouse
Sequence (P42866 whole entry): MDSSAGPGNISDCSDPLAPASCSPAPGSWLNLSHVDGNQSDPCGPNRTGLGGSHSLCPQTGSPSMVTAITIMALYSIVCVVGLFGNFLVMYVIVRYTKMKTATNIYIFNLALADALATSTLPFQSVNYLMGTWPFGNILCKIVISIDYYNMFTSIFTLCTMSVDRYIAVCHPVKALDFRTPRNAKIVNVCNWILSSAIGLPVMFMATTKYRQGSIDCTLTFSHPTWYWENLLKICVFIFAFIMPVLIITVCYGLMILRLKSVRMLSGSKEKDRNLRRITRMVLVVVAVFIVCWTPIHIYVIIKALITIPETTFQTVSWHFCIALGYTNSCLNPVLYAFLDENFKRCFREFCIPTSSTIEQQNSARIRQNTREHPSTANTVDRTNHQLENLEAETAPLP
assay_comment: Ke with naloxone in isolated mouse vas deference preparation
Format: cell-based, mouse (male ddy)
Please respond with the number in nM and leave the unit unwritten.

For orientation, consider the following solved cases.
CN(C(=O)COc1ccccc1)[C@H]1CC[C@@]2(O)[C@H]3Cc4ccc(O)c5c4[C@@]2(CCN3CC2CC2)[C@H]1O5
411
CN(C(=O)/C=C/c1ccccc1)[C@H]1CC[C@@]2(O)[C@H]3Cc4ccc(O)c5c4[C@@]2(CCN3CC2CC2)[C@H]1O5
16.5
CN(C(=O)OCc1ccc([N+](=O)[O-])cc1)[C@H]1CC[C@@]2(O)[C@H]3Cc4ccc(O)c5c4[C@@]2(CCN3CC2CC2)[C@H]1O5
409
CN(C(=O)C#Cc1ccc(C(F)(F)F)cc1)[C@H]1CC[C@@]2(O)[C@H]3Cc4ccc(O)c5c4[C@@]2(CCN3CC2CC2)[C@H]1O5
40.2
CN(C(=O)C#Cc1ccccc1)[C@H]1CC[C@@]2(O)[C@H]3Cc4ccc(O)c5c4[C@@]2(CCN3CC2CC2)[C@H]1O5
35.4

Can you look up the measured Ke Naloxone of "CC(=O)Oc1ccc2c3c1O[C@H]1[C@H](N(C)C(=O)/C=C/c4cccc(C(F)(F)F)c4)CC[C@@]4(O)[C@@H](C2)N(CC2CC2)CC[C@]314" for me?
142

----------
target: κ receptor (Mus musculus, UniProt P33534)
Construct: The isolated vas deference was filled with Krebes-Henseleit solution; from tissue; host or cells: isolated vas deferens of male ddy mouse
Sequence (P33534 whole entry): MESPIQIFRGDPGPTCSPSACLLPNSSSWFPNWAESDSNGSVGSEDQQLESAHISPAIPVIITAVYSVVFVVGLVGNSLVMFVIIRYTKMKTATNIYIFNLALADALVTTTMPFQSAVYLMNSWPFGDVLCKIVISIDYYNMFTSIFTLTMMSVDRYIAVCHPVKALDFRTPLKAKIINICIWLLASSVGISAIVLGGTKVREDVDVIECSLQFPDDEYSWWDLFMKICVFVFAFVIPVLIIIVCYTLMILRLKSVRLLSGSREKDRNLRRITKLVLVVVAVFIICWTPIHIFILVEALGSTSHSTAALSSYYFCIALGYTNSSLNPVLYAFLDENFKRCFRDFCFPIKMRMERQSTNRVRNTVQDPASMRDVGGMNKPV
assay_comment: Ke with norBNI in isolated mouse vas deference preparation
Assay type: cell-based, mouse (male ddy)
details: norBNI (κ)
// reported Ke norBNI for each item listed
Give me the value, and tack the unit on after it.

C=CCN1CC[C@]23c4c5ccc(O)c4O[C@H]2[C@@H](N(C)C(=O)Cc2ccc(Cl)c(Cl)c2)CC[C@@]3(O)[C@H]1C5
0.358 nM
CC(=O)Oc1ccc2c3c1O[C@H]1[C@H](N(C)C(=O)/C=C/c4cccc(C(F)(F)F)c4)CC[C@@]4(O)[C@@H](C2)N(CC2CC2)CC[C@]314
1.39 nM

# input for lookup
Can you look up the measured Ke norBNI of "CN(C(=O)/C=C/c1cccc(F)c1)[C@@H]1CC[C@@]2(O)[C@H]3Cc4ccc(O)c5c4[C@@]2(CCN3CC2CC2)[C@H]1O5" for me?
2.37 nM

----------
target: δ receptor (Mus musculus)
Construct: The isolated vas deference was filled with Krebes-Henseleit solution; from tissue; host or cells: isolated vas deferens of male ddy mouse
assay_comment: Ke with NTI in isolated mouse vas deference preparation
Type: cell-based, mouse (male ddy)
details: NTI (δ)
parameter_measured: Ke NTI (nM)
Please respond with the number in nM and leave the unit unwritten.

CN(C(=O)C#Cc1ccc(C(F)(F)F)cc1)[C@H]1CC[C@@]2(O)[C@H]3Cc4ccc(O)c5c4[C@@]2(CCN3CC2CC2)[C@H]1O5
0.0065
CN(C(=O)Cc1ccc(Cl)c(Cl)c1)[C@@H]1CC[C@@]2(O)[C@H]3Cc4ccc(O)c5c4[C@@]2(CCN3CC2CC2)[C@H]1O5
1676

# input for lookup
Can you look up the measured Ke NTI of "CCCCCC(=O)N(C)[C@@H]1CC[C@@]2(O)[C@H]3Cc4ccc(O)c5c4[C@@]2(CCN3CC2CC2)[C@H]1O5" for me?
90.2
